# Test system: Mycobacterium tuberculosis strain H37Rv
# Experimental details: Activity test for Mycobacterium tuberculosis (MIC, liquid medium, 96-well microplate)
# Assay type: cell-based
# Measurement conditions: relative to ethambutol
Test readout: MIC for H37Rv, times as that of ethambutol (times)

>>> print(df.to_string())
                                   molecule                            target_system  units_of_measure  obs_value
0  CC(C)Oc1ccc(OC2CCN(CC(=O)N[C@@H]3COc4nc([N+](=O)[O-])cn4C3)CC2)cc1 [Compound 14]  Mycobacterium tuberculosis strain H37Rv             times          8
1  O=C(CCCN1CC(Oc2ccc(OC(F)(F)F)cc2)C1)N[C@@H]1COc2nc([N+](=O)[O-])cn2C1 [Compound 26]  Mycobacterium tuberculosis strain H37Rv             times         16
2  O=C(CN1CCC(Oc2ccc(OCCOC3CC3)cc2)CC1)N[C@@H]1COc2nc([N+](=O)[O-])cn2C1 [Compound 16]  Mycobacterium tuberculosis strain H37Rv             times         16
3  O=C(CN1CCC(Oc2ccc(OC(F)(F)F)cc2)CC1)N[C@@H]1COc2nc([N+](=O)[O-])cn2C1 [Compound 1]  Mycobacterium tuberculosis strain H37Rv             times         16
4  O=C(CN1CCC(Oc2ccc(OC(F)(F)F)c(F)c2)CC1)N[C@@H]1COc2nc([N+](=O)[O-])cn2C1 [Compound 3]  Mycobacterium tuberculosis strain H37Rv             times          8
5  O=C(CCN1CCC(Oc2ccc(OC(F)(F)F)cc2)CC1)N[C@@H]1COc2nc([N+](=O)[O-])cn2C1 [Compound 22]  Mycobacterium tuberculosis strain H37Rv             times          8

###

# Experimental details: Drug metabolism test: pharmacokinetics in mice
# Format: in vivo, ICR mice
# Measurement conditions: male, ICR, mouse, PO (25 mg/kg), plasma
Test readout: AUC(0-t) (ng·h/mL)

>>> print(df.to_string())
                                   compound  units_of_measure  obs_value
0  O=C(CN1CCC(Oc2ccc(OC(F)(F)F)cc2)CC1)N[C@@H]1COc2nc([N+](=O)[O-])cn2C1 [Compound 1]           ng·h/mL      40100

###

# Experimental details: Drug metabolism test: pharmacokinetics in mice
# Assay type: in vivo, ICR mice
# Measurement conditions: male, ICR, mouse, PO (25 mg/kg), plasma
# Experimental: 16 healthy male ICR mice with 18-22 g of body weight were used. Drugs were employed by intravenous or gavage administration, administration doses were 5 mg and 25 mg/kg, administration volume was 10 mL/kg. Fasted for 12 h before test with free access to water. Uniformly fed at 2 h after administration. […] When detected, samples were treated according to plasma sample treatment method, drug concentration in plasma was determined by LC-MS method, and calculated its pharmacokinetic parameters.
Test readout: Tmax (h)

>>> df
                           structure_string  test_readout  obs_value
0  O=C(CN1CCC(Oc2ccc(OC(F)(F)F)cc2)CC1)N[C@@H]1COc2nc([N+](=O)[O-])cn2C1          Tmax          1

###

Reported solubility at 3 days values follow for various compounds
# Experimental details: physchem
# Assay type: physicochemical
# Measurement conditions: pH 1.2, simulated gastric fluid, thermodynamic from solid
Test readout: solubility at 3 days (µg/mL)

>>> print(df.to_string())
                                   compound          test_readout  obs_value
0  O=C(CCCN1CC(Oc2ccc(OC(F)(F)F)cc2)C1)N[C@@H]1COc2nc([N+](=O)[O-])cn2C1 [Compound 26]  solubility at 3 days        846
1  O=C(CCN1CCC(Oc2ccc(OC(F)(F)F)cc2)CC1)N[C@@H]1COc2nc([N+](=O)[O-])cn2C1 [Compound 22]  solubility at 3 days        677
2  O=[N+]([O-])c1cn2c(n1)OC[C@@H](OCc1ccc(OC(F)(F)F)cc1)C2 [PA-824, reference compound]  solubility at 3 days        9.4
3  O=C(CN1CCC(Oc2ccc(OC(F)(F)F)cc2)CC1)N[C@@H]1COc2nc([N+](=O)[O-])cn2C1 [Compound 1]  solubility at 3 days        746
4  O=C(CN1CCN(Cc2ccc(OC(F)(F)F)cc2)CC1)N[C@@H]1COc2nc([N+](=O)[O-])cn2C1 [Compound 17]  solubility at 3 days       1460

###

# Experimental details: Drug metabolism test: pharmacokinetics in mice
# Format: in vivo, ICR mice
# Measurement conditions: male, ICR, mouse, PO (25 mg/kg), plasma
# Method: 16 healthy male ICR mice with 18-22 g of body weight were used. Drugs were employed by intravenous or gavage administration, administration doses were 5 mg and 25 mg/kg, administration volume was 10 mL/kg. Fasted for 12 h before test with free access to water. Uniformly fed at 2 h after administration. […] When detected, samples were treated according to plasma sample treatment method, drug concentration in plasma was determined by LC-MS method, and calculated its pharmacokinetic parameters.
Test readout: half-life (h)

                                   molecule  obs_value
0  O=C(CN1CCC(Oc2ccc(OC(F)(F)F)cc2)CC1)N[C@@H]1COc2nc([N+](=O)[O-])cn2C1 [Compound 1]        2.7

###

# Experimental details: Drug metabolism test: pharmacokinetics in mice
# Assay type: in vivo, ICR mice
# Measurement conditions: male, ICR, mouse, IV (5 mg/kg), plasma
Test readout: half-life (h)

                           structure_string  test_readout  obs_value
0  O=C(CN1CCC(Oc2ccc(OC(F)(F)F)cc2)CC1)N[C@@H]1COc2nc([N+](=O)[O-])cn2C1     half-life        2.8

###

# Experimental details: Drug metabolism test: pharmacokinetics in mice
# Assay type: in vivo, ICR mice
# Measurement conditions: male, ICR, mouse, IV (5 mg/kg), plasma
Test readout: AUC(0-inf) (ng·h/mL)

>>> df
                           structure_string  obs_value
0  O=C(CN1CCC(Oc2ccc(OC(F)(F)F)cc2)CC1)N[C@@H]1COc2nc([N+](=O)[O-])cn2C1       7860

###

# Experimental details: physchem
# Type: physicochemical
Test readout: water-solubility, times as that of PA-824 (times)

>>> print(df.to_string())
                                   compound  obs_value
0  O=C(CN1CCN(Cc2ccc(OC(F)(F)F)cc2)CC1)N[C@@H]1COc2nc([N+](=O)[O-])cn2C1 [Compound 17]        155
1  O=C(CN1CCC(Oc2ccc(OC(F)(F)F)cc2)CC1)N[C@@H]1COc2nc([N+](=O)[O-])cn2C1 [Compound 1]         79
2  O=C(CCCN1CC(Oc2ccc(OC(F)(F)F)cc2)C1)N[C@@H]1COc2nc([N+](=O)[O-])cn2C1 [Compound 26]         90
3  O=C(CCN1CCC(Oc2ccc(OC(F)(F)F)cc2)CC1)N[C@@H]1COc2nc([N+](=O)[O-])cn2C1 [Compound 22]         72

###

# Experimental details: Drug metabolism test: pharmacokinetics in mice
# Type: in vivo, ICR mice
# Measurement conditions: male, ICR, mouse, PO (25 mg/kg), plasma, read-out: MRT0-t
Test readout: MRT last (h)

>>> print(df.to_string())
                                   molecule  test_readout  obs_value
0  O=C(CN1CCC(Oc2ccc(OC(F)(F)F)cc2)CC1)N[C@@H]1COc2nc([N+](=O)[O-])cn2C1 [Compound 1]      MRT last          5

###

# Experimental details: Drug metabolism test: pharmacokinetics in mice
# Assay type: in vivo, ICR mice
# Measurement conditions: male, ICR, mouse, IV (5 mg/kg), plasma
Test readout: Cmax (ng/mL)

In [3]: df
Out[3]:
                                   compound  obs_value
0  O=C(CN1CCC(Oc2ccc(OC(F)(F)F)cc2)CC1)N[C@@H]1COc2nc([N+](=O)[O-])cn2C1 [Compound 1]       3880

###

# Experimental details: Drug metabolism test: pharmacokinetics in mice
# Format: in vivo, ICR mice
# Measurement conditions: male, ICR, mouse, PO (25 mg/kg), plasma
Test readout: Cmax (ng/mL)

>>> print(df.to_string())
                                   compound  obs_value
0  O=C(CN1CCC(Oc2ccc(OC(F)(F)F)cc2)CC1)N[C@@H]1COc2nc([N+](=O)[O-])cn2C1 [Compound 1]       4790
